# Species on record: Cavia porcellus
# Measurement Notes: Percent inhibition of the LTE4- induced contraction of guinea pig tracheal spirals at the concentration of 1 uM
# Type: functional
# Reported Conditions: Trachea
Quantity Name: inhibition at 1 µM (%)
Express it in %; write the number only.

Incoming: I am curious: what inhibition at 1 µM value has been reported for CCCCNC(=O)Nc1ccc2ccn(Cc3ccc(C(=O)O)cc3OC)c2c1 ?
Outgoing: 39

Incoming: Now the same for CCCCC(CC)C(=O)Nc1ccc2ccn(Cc3ccc(C(=O)O)cc3OC)c2c1 (stereo unspecified)
Outgoing: 59

Incoming: Queued: CCC(C(=O)Nc1ccc2ccn(Cc3ccc(C(=O)O)cc3OC)c2c1)c1ccccc1 (stereo unspecified)
Outgoing: 65

Incoming: What about COc1cc(C(=O)O)ccc1Cn1ccc2ccc(NC(=O)NC3CCCC3)cc21 ?
Outgoing: 73

Incoming: Try the molecule CCCc1c(OCc2ccc(C(=O)O)cc2OC)ccc(C(C)=O)c1O
Outgoing: 38

Incoming: Again, but for COc1cc(C(=O)O)ccc1Cn1ccc2ccc(NC(=O)C3CCCC3)cc21
Outgoing: 58
